Experiment: qHTS assay for MDR1-selective chemotherapeutics: Primary screen using the drug-selected MDR subline cells KB-V1; note: nearly all actives have a fitted effect of over 60% in size
Conditions: KB-V1 MDR cells viability, CellTiter-Glo, 72 h; series mostly up to 46.1 µM
In all, about 400,000 compounds went through this assay and about 13,000 (3.2%) were called active. About 18% were inconclusive and are not listed. Calls come from the whole dose curve; as a rule, active = well fitted cell-killing curve with a large enough effect; inconclusive = small, poorly fitted or top-dose-only effect, or effect the other way; inactive = flat fitted curve, though single readings scatter. The list comes from a sample in which actives are over-represented; it also holds close analogues and randomly drawn compounds.
Bench note: report the call from 1 (yes) for active, 0 (no) for inactive

Study these solved cases before continuing.
CC(C)(C)NC(=O)C(CCc1ccccc1)n1c(=O)c(-c2ccccc2)nc2ccccc21 (stereo unspecified); 0 (no)
Cc1c(C(=O)Nc2ccccn2)oc2ccc(Br)cc12; 1 (yes)
NC(CSC(c1ccccc1)(c1ccccc1)c1ccc(-c2ccccc2)cc1)C(=O)O (stereo unspecified); 0 (no)
Cc1c(NC(=O)COC(=O)/C=C/c2cccc(F)c2)c(=O)n(-c2ccccc2)n1C; 0 (no)
Cc1nonc1NC(=O)c1oc2ccccc2c1C; 0 (no)

Enquiry: Outcome? O=c1oc2ccccc2cc1-c1cn(-c2ccccc2)c(=S)[nH]1
Return: 1 (yes)

Enquiry: Call for entry Cc1ccc(-c2cnc(C(O)c3cccc(C)c3C)[nH]2)cc1 (stereo unspecified) :
Return: 0 (no)

Enquiry: Returns: the outcome recorded for COc1cc2nnn(-c3ccncc3)c2cc1OC in this assay.
Return: 0 (no)

Enquiry: What did the test return for S=c1[nH]c(-c2cccs2)cn1-c1ccccc1 ?
Return: 0 (no)

Enquiry: Query: recorded result category for Cc1nnc(SCC(=O)NCc2ccccc2Cl)c2nn(-c3ccccc3)c(C)c12 in this test
Return: 0 (no)

Enquiry: Look up the recorded call for Cc1noc(C)c1C(=O)Nc1ccccn1 in this test.
Return: 0 (no)
